The measurements presented in this section are drawn from patent EP4818176A1.

test: Pharmacokinetics in rats (plasma) after oral administration; type: in vivo; details: male, rat, po, SD rats, p.o. 5 mg/kg, read-out: Cmax
Under this convention, t denotes Cmax strictly below 300 ng/mL and f denotes Cmax at or above 300 ng/mL.

Exercise: Is Cmax of Nc1nc2cc3c(cc2n2cncc12)C(=O)N(Cc1ccc(S(F)(F)(F)(F)F)cn1)CCCOC3 [Example 414] strictly below 300 ng/mL?
Solution: t

Exercise: Is Cmax of Nc1nc2cc3c(cc2c2c1COC2)C(=O)N(C1COCc2nc(C(F)(F)F)ccc21)CCC/C=C\3 (single isomer, unassigned) [Example 165-P1] strictly below 300 ng/mL?
Solution: f

Exercise: Is Cmax of Nc1nc2cc3c(cc2n2cncc12)C(=O)N(C1COCc2nc(C(F)(F)F)ccc21)CCC/C=C\3 (centres unmarked) [Example 158] strictly below 300 ng/mL?
Solution: t

Exercise: Is Cmax of Nc1nc2cc3c(cc2n2cncc12)C(=O)N(C1COCc2nc(C(F)(F)F)ccc21)CCCC/C=C\3 (single isomer, unassigned) [Example 62-P1] strictly below 300 ng/mL?
Solution: t

Exercise: Is Cmax of Nc1nc2cc3c(cc2n2cncc12)C(=O)N(Cc1ccc(C(F)(F)F)cn1)CC/C=C\3 [Example 416] strictly below 300 ng/mL?
Solution: f

---

molecular target: PRMT5/MEP50-MTA protein complex (Homo sapiens, UniProt O14744); construct: purchased Viva Biotech; test: Thermal shift assay: thermal stability (melting temperature) of PRMT5/MEP50-MTA protein complex; type: binding; conditions: final compound concentration 8 µM; 2 µM PRMT5/MEP50, 2 µM MTA; Tm minus Tm of DMSO vehicle control
Sequence (O14744 whole entry): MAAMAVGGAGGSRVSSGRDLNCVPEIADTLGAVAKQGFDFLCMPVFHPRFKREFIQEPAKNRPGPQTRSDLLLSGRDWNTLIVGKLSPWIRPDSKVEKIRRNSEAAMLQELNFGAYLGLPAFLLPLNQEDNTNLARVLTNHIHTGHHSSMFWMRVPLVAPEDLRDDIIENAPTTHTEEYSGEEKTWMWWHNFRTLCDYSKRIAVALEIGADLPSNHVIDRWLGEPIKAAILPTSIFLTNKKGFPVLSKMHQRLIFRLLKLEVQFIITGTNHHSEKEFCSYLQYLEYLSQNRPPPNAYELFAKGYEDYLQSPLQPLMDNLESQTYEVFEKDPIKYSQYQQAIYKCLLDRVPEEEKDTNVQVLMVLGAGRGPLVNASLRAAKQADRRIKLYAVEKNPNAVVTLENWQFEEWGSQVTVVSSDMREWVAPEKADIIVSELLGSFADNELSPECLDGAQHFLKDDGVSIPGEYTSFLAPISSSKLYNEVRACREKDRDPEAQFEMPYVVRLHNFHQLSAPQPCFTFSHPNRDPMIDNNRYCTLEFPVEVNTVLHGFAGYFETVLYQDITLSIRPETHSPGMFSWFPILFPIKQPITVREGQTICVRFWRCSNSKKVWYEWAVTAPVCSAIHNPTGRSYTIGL
Sequence (Q9BQA1 whole entry partner): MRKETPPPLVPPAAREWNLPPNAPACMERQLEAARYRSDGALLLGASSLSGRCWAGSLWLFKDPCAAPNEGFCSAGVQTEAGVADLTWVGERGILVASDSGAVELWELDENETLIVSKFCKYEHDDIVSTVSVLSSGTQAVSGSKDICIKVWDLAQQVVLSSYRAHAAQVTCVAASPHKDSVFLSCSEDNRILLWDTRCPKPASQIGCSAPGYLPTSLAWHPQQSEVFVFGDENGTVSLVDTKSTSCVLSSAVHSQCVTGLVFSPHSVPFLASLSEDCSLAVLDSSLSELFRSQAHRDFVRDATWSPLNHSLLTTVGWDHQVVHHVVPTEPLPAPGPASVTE
EXPERIMENTAL READOUT: ΔTm at 8 µM (°C)
Numbers only; they are read as °C.

// ΔTm at 8 µM lookup, compound = CC1OCc2c1c(N)nc1cc3c(cc21)C(=O)N(Cc1ccc(-c2c(F)cccc2F)cn1)CCCNC3 (stereo not shown) , result: 12.8

// ΔTm at 8 µM lookup, compound = Nc1nc2cc3c(cc2n2cncc12)C(=O)N([C@@H]1COc2cc(C(F)(F)F)ccc21)CCC/C=C\3 (stereo in doubt) [Example 164-P1] , result: 11.2

// ΔTm at 8 µM lookup, compound = Nc1nc2cc3c(cc2n2cncc12)C(=O)N(Cc1ccc(S(F)(F)(F)(F)F)cc1)CCCOC3 , result: 12.3

// ΔTm at 8 µM lookup, compound = Nc1nc2cc3c(cc2n2cncc12)C(=O)N(Cc1ccc(-c2c(F)cccc2F)cn1)CCCOC3 , result: 12.5

// ΔTm at 8 µM lookup, compound = Nc1nc2cc3c(cc2c2c1COC2)C(=O)N(Cc1ccc(C(F)(F)F)cn1)CC/C=C\3 , result: 12.3

// ΔTm at 8 µM lookup, compound = Nc1nc2cc3c(cc2n2cncc12)C(=O)N(Cc1ccc(C24CC(C2)C4)cn1)CCCOC3 , result: 11.9

// ΔTm at 8 µM lookup, compound = Nc1nc2cc3c(cc2n2cncc12)C(=O)N(Cc1ccc(C(F)(F)F)nn1)CCC/C=C\3 , result: 10.9

// ΔTm at 8 µM lookup, compound = CN1CCCN(Cc2ccc(C(F)(F)F)cn2)C(=O)c2cc3c(cc2C1)nc(N)c1cnn(C)c13 , result: 10.6

// ΔTm at 8 µM lookup, compound = Nc1nc2cc3c(cc2n2cncc12)C(=O)N(Cc1ccc(-c2c(F)cncc2F)cn1)CCC/C=C\3 , result: 12.7

// ΔTm at 8 µM lookup, compound = NC1=NC2C=C3CCCCCN(Cc4ccc(C(F)(F)F)cn4)C(=O)C3=CC2n2cncc21 (stereo not shown) , result: 11

// ΔTm at 8 µM lookup, compound = CC(c1ccc(C(F)(F)F)nc1)N1CCC/C=C\c2cc3nc(N)c4cncn4c3cc2C1=O (stereo not shown) , result: 10.3

// ΔTm at 8 µM lookup, compound = CC1CCCN(Cc2ccc(C(F)(F)F)cn2)C(=O)c2cc3c(cc2C1)nc(N)c1cncn13 (racemic) , result: 10.9

// ΔTm at 8 µM lookup, compound = Nc1nc2cc3c(cc2n2cncc12)C(=O)N(C1COCc2nc(C(F)(F)F)ccc21)CCC/C=C\3 (stereo not shown) , result: 11.3

// ΔTm at 8 µM lookup, compound = Cn1ncc2c(N)nc3cc4c(cc3c21)C(=O)N(Cc1ccc(-c2c(F)cccc2F)cn1)CCCOC4 , result: 13.7

// ΔTm at 8 µM lookup, compound = Nc1nc2cc3c(cc2c2c1COC2)C(=O)N(Cc1ccc(C(F)(F)F)cn1)CCCOC3 , result: 11.2

// ΔTm at 8 µM lookup, compound = CC(c1ccc(C(F)(F)F)cn1)N1CCC/C=C\c2cc3nc(N)c4cncn4c3cc2C1=O (racemic) , result: 11
